Each recorded value in this set is attributed to paper PMC5540273.

This listing pairs compounds with measured %Inh.
- System: ACVRL1
- assayContext: concentration: 1 μM, replicates: in singlicate; n = 1;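 further: KINOMEscan kinase panel screen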

chemicalString: CCC(=O)c1c(-c2ccccc2)c2cc(Cl)ccc2c(=O)n1Cc1ccc(C(=O)O)cc1
readoutUnit: %
%Inh: 0
//
chemicalString: CN1C(=O)C(Nc2cc(Cl)c(O)c(Cl)c2)=C(c2ccc(Cl)cc2)C1=O
readoutUnit: %
%Inh: 0
//
chemicalString: COc1cc2nccc(Nc3ccc(OCc4ccc(NC(C)=O)cc4)cc3)c2cc1OC.Cl
readoutUnit: %
%Inh: 4
//
chemicalString: Cc1c(Cn2c(C)nn3c(=O)cc(N4CCO[C@H](C)C4)nc23)cccc1C(F)(F)F
readoutUnit: %
%Inh: 0
//
chemicalString: O=C(Nc1n[nH]c2cc(-c3ccccc3F)ccc12)C1CC1
readoutUnit: %
%Inh: 0
//
chemicalString: O=C(Nc1n[nH]c2nc(-c3ccccc3)c(Br)cc12)C1CC1
readoutUnit: %
%Inh: 21
//
chemicalString: COC(=O)c1c(-c2ccccc2)c2cc(Br)ccc2c(=O)n1Cc1ccc(NC(=O)CCC(=O)O)cc1
readoutUnit: %
%Inh: 0
//
chemicalString: COc1ccc(-c2coc3ccc(-c4nnc(SCc5cccc(C#N)c5)o4)cc23)cc1
readoutUnit: %
%Inh: 0

---

- Test system: DAPK2
- assayContext: concentration: 1 μM, replicates: in singlicate; n = 1

chemicalString: COC(=O)c1c(-c2ccccc2)c2cc(C)ccc2c(=O)n1Cc1ccccc1
readoutUnit: %
%Inh: 0
--
chemicalString: CCn1c(-c2nonc2N)nc2ccccc21
readoutUnit: %
%Inh: 0
--
chemicalString: C[C@@H]1CC[C@H](C(=O)NC2CCCCC2)CN1c1cc(-c2ccc3c(N)n[nH]c3c2)nc(N)n1
readoutUnit: %
%Inh: 47
--
chemicalString: O=C1NC(=O)C(c2ccccc2)=C1Nc1cccc(O)c1
readoutUnit: %
%Inh: 0
--
chemicalString: COc1cc2ncn(-c3cc(OCc4ccncc4Br)c(C(N)=O)s3)c2cc1OC
readoutUnit: %
%Inh: 18
--
chemicalString: CCCC(=O)Nc1n[nH]c2ncc(-c3cccc4ccccc34)cc12
readoutUnit: %
%Inh: 0
--
chemicalString: COc1cc2ncn(-c3cc(OCc4ccncc4)c(C(N)=O)s3)c2cc1OC
readoutUnit: %
%Inh: 0
--
chemicalString: COc1cccc(-n2cnc3c(N)ncnc32)c1
readoutUnit: %
%Inh: 0
--
chemicalString: COc1cc(Nc2ccnc3ccc(C(F)(F)F)cc23)cc(OC)c1OC
readoutUnit: %
%Inh: 4

---

This listing pairs compounds with measured %Inh.
- Tested on: AXL
- assayContext: concentration: 1 μM, replicates: in singlicate; n = 1
measuredParameter: %Inh (%)

chemicalString: OCCCNc1nccc(-c2c(-c3cccc(C(F)(F)F)c3)nn3cc(C(F)(F)F)ccc23)n1
assayedSystem: AXL
measuredParameter: %Inh
observed: 0
//
chemicalString: COc1cc(Nc2ccnc3ccc(C(F)(F)F)cc23)cc(OC)c1OC
assayedSystem: AXL
measuredParameter: %Inh
observed: 12
//
chemicalString: O=C(NCc1cccs1)c1cc(C(=O)c2c(Cl)cccc2Cl)c[nH]1
assayedSystem: AXL
measuredParameter: %Inh
observed: 0
//
chemicalString: CCn1c(-c2ccoc2)nc2cnccc21
assayedSystem: AXL
measuredParameter: %Inh
observed: 5
//
chemicalString: O=C(Nc1n[nH]c2nc(-c3ccccc3)c(Cl)cc12)C1CC1
assayedSystem: AXL
measuredParameter: %Inh
observed: 0
